system: HCT-116; assay: NCI tumour cell line growth inhibition, 48 h
The source made the active and inactive calls. Rule as the data show it: active = GI50 up to about 1.1 µM and inactive = higher.
Permitted responses: 1 (active), -1 (inactive)

Before answering, review these 6 worked examples.
compound: c1ccc(C2=NOC(c3ccccc3)N2C23CC4CC(CC(C4)C2)C3)cc1 (configuration not stated)
group: -1

compound: COC(=O)C1=CC(=O)[C@@H]2CCCC[C@H]12
group: -1

compound: C=C1CCN2CC[C@@H](OC(=O)/C(C)=C\C)[C@@H]12
group: -1

compound: O=C(O)C(CO)NC(=O)C1C(C(=O)O)C(c2ccccc2[N+](=O)[O-])C=C(c2ccco2)N1c1ccncc1 (configuration not stated)
group: -1

compound: COC(=O)[C@]1(C)CCC[C@@]2(C)[C@@H]3C[C@@H]4[C@H]5C[C@@]3(CC[C@@H]21)C[C@@]45C
group: -1

compound: O=[N+]([O-])c1ccc(S(=O)(=O)Cc2ccccc2)c2nonc12
group: -1

Problem: Per the records of this test, what outcome belongs to C#C/C=C/CC1OC(C(Br)CC)CC(Br)C2CC1O2 (configuration not stated) ?
Solution: -1

Problem: Quick one: CCOc1cccc(-c2cc(O)c3cc4c(cc3n2)OCO4)c1
Solution: 1

Problem: Quick one: O=NN1CCNC1Cc1ccccc1 (configuration not stated)
Solution: -1

Problem: Quick one: O=C(CCC(=O)Nc1ccc(Cl)c(Cl)c1)CC(=O)c1ccc(Cl)cc1
Solution: -1

Problem: Quick one: Cc1ccc(/C=C2\CN(C)CC3=C2OC(N)=C(C#N)C3c2ccc(C)cc2)cc1 (configuration not stated)
Solution: -1

Problem: Quick one: COc1cc(O)c2c(=O)c(O)c(-c3ccc(O)c(OC)c3)oc2c1
Solution: -1

Problem: Quick one: C=C(C)COc1cc(/N=C(/S)OC(C)C)ccc1Cl
Solution: -1

Problem: Quick one: C=C1CCC2[C@](C)(CCC[C@]2(C)C(=O)O)[C@@H]1CCc1ccoc1 (some centres not stated)
Solution: -1

Problem: Quick one: O=C(/C=C1\N=C(c2ccccc2)N(c2nc3c(Cl)cc(Cl)cc3s2)C1=O)/C=C/c1ccccc1
Solution: -1

Problem: Quick one: CNS(=O)(=O)NN(C)S(=O)(=O)c1ccc(C)cc1
Solution: -1

Problem: Quick one: O=C(/C=C/c1ccc(O)cc1)c1ccc(O)cc1 [4,4'-DIHYDROXYCHALCONE]
Solution: -1
